The measurements presented in this section are drawn from ChEMBL document CHEMBL1201862.

System: M14
Assay: NCI tumour cell line growth inhibition, 48 h
Active and inactive are the calls of the source. No stated cut-off is given here; in the data, active = GI50 up to about 1.1 µM and inactive = higher.
ENDPOINT_NAME: GI50

Some molecules with known GI50 results, for comparison:
MOLECULE: COC(=O)NC(Nc1ccc(C)cc1)(C(F)(F)F)C(F)(F)F
GI50: > 100 µM (inactive)
//
MOLECULE: COc1ccc(NC(=O)c2cc(OC)cc(OC)c2)cc1
GI50: 47.3 µM (inactive)
//
MOLECULE: COc1cc([C@@H]2c3cc4c(cc3[C@H](OC3OC5COC(C(C)C)OC5C(O)C3O)C3COC(=O)[C@@H]32)OCO4)cc(OC)c1O (stereo not given in full)
GI50: 11.4 µM (inactive)
//
MOLECULE: CCCCCCCCCCCCCCCCCC(=O)OCC(C[As](=O)(O)O)OC(=O)CCCCCCCCCCCCCCCCC (stereo not given)
GI50: > 100 µM (inactive)

Consider the additional molecule presented here.
Q. Recall the recorded GI50 for O=[N+]([O-])c1cc(-c2nnc(C34CC5CC(CC(C5)C3)C4)o2)cc([N+](=O)[O-])c1 with M14 and state it.
A. 21.5 µM (inactive)
